Hi there, I'd appreciate the recorded Bliss excess for every entry that follows.
tested on: T47D (Breast Carcinoma); test: Bliss excess, mean over the matrix (fraction); higher = more synergy;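 further: after 72 h of two-drug dosing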
Give bare numbers.

Example entries begin here.
# input State the recorded Bliss excess for this entry: Cc1cc2ncnn2cc1Nc1ncc2c(n1)n(C1CCOCC1)c(=O)n2C [AZD7648] + CN(C)CCCOc1ccc(-c2ccc3ncc4c(c3c2)n(C2CCOCC2)c(=O)n4C)cn1 [AZD0156] (first compound max 10 µM, 7x7, partner max 1 µM)
# output 0.0055

# input What value of Bliss excess has been recorded for this entry: CN(CCO)CC[C@H](CSc1ccccc1)Nc1ccc(S(=O)(=O)NC(=O)c2ccc(N3CCC([C@@H](O)c4ccccc4-c4ccc(Cl)cc4)CC3)cc2)cc1S(=O)(=O)C(F)(F)F [AZD4320] + CCN(CCO)CCCOc1ccc2c(Nc3cc(CC(=O)Nc4cccc(F)c4)[nH]n3)ncnc2c1 [AZD2811] (first compound max 1 µM, 7x7, partner max 1 µM)
# output -0.0174

# input Requested field: Bliss excess. Item: Cc1cc2ncnn2cc1Nc1ncc2c(n1)n(C1CCOCC1)c(=O)n2C [AZD7648] + C=CCn1c(=O)c2cnc(Nc3ccc(N4CCN(C)CC4)cc3)nc2n1-c1cccc(C(C)(C)O)n1 [AZD1775] (first compound max 10 µM, partner max 1 µM)
# output -0.0146

Continue with the next compound.
# input Field request: Bliss excess | item: CC1(C)CCC(CN2CCN(c3ccc(C(=O)NS(=O)(=O)c4ccc(NCC5CCOCC5)c([N+](=O)[O-])c4)c(Oc4cnc5[nH]ccc5c4)c3)CC2)=C(c2ccc(Cl)cc2)C1 [Venetoclax] + C=CCn1c(=O)c2cnc(Nc3ccc(N4CCN(C)CC4)cc3)nc2n1-c1cccc(C(C)(C)O)n1 [AZD1775] (first compound max 1 µM, partner max 1 µM)
# output -0.0814

###

tested on: NCI-H596 (Other Solid Carcinomas); assay: Bliss excess, mean over the matrix (fraction); higher = more synergy
Please respond with reported Bliss excess for every item in the list.

# input What Bliss excess value was documented for this compound, Cn1cnc2c(F)c(Nc3ccc(Br)cc3Cl)c(C(=O)NOCCO)cc21 [Selumetinib] + CCN(CCO)CCCOc1ccc2c(Nc3cc(CC(=O)Nc4cccc(F)c4)[nH]n3)ncnc2c1 [AZD2811] (first compound max 10 µM, 7x7, partner max 1 µM) ?
# output -0.035

Others:
# input Quick one: Bliss excess for CC1(C)CCC(CN2CCN(c3ccc(C(=O)NS(=O)(=O)c4ccc(NCC5CCOCC5)c([N+](=O)[O-])c4)c(Oc4cnc5[nH]ccc5c4)c3)CC2)=C(c2ccc(Cl)cc2)C1 [Venetoclax] + CCN(CCO)CCCOc1ccc2c(Nc3cc(CC(=O)Nc4cccc(F)c4)[nH]n3)ncnc2c1 [AZD2811] (first compound max 1 µM, 7x7, partner max 1 µM) ?
# output -0.0394

###

Would you kindly list Bliss excess for each of these compounds?
system: OAW-28 (Ovarian Carcinoma); assay: Bliss excess, mean over the matrix (fraction); higher = more synergy
Numbers only.

# input Any idea what its Bliss excess is? The compound is CN(CCO)CC[C@H](CSc1ccccc1)Nc1ccc(S(=O)(=O)NC(=O)c2ccc(N3CCC([C@@H](O)c4ccccc4-c4ccc(Cl)cc4)CC3)cc2)cc1S(=O)(=O)C(F)(F)F [AZD4320] + C=CCn1c(=O)c2cnc(Nc3ccc(N4CCN(C)CC4)cc3)nc2n1-c1cccc(C(C)(C)O)n1 [AZD1775] (first compound max 1 µM, partner max 1 µM)
# output 0.0652

# input Recorded Bliss excess for NC1(C(=O)N[C@@H](CCO)c2ccc(Cl)cc2)CCN(c2ncnc3[nH]ccc23)CC1 [Capivasertib] + CC(C)n1c(=O)n(C)c2cnc3cc(F)c(-c4ccc(OCCCN5CCCCC5)nc4)cc3c21 [AZD1390] (first compound max 10 µM, 7x7, partner max 0.3 µM) , please?
# output -0.0674

# input # lookup: Bliss excess of CN(CCO)CC[C@H](CSc1ccccc1)Nc1ccc(S(=O)(=O)NC(=O)c2ccc(N3CCC([C@@H](O)c4ccccc4-c4ccc(Cl)cc4)CC3)cc2)cc1S(=O)(=O)C(F)(F)F [AZD4320] + Cc1cc2ncnn2cc1Nc1ncc2c(n1)n(C1CCOCC1)c(=O)n2C [AZD7648] (first compound max 1 µM, 7x7, partner max 10 µM)
# output -0.0348

Could I get Bliss excess for every one of these entries?
1. NC1(C(=O)N[C@@H](CCO)c2ccc(Cl)cc2)CCN(c2ncnc3[nH]ccc23)CC1 [Capivasertib] + Cn1cnc2c(F)c(Nc3ccc(Br)cc3Cl)c(C(=O)NOCCO)cc21 [Selumetinib] (first compound max 10 µM, 7x7, partner max 10 µM)
2. Cc1c2c(nn1C)CSCc1cc(n(C)n1)CSc1cc(c3ccccc3c1)OCCCc1c(C(=O)O)n(C)c3c-2c(Cl)ccc13 [AZD5991] + Cn1cnc2c(F)c(Nc3ccc(Br)cc3Cl)c(C(=O)NOCCO)cc21 [Selumetinib] (first compound max 1 µM, 7x7, partner max 3 µM)
3. C[C@@H](c1ccc2nccn2c1)n1nnc2ncc(-c3cnn(C)c3)nc21 [Savolitinib] + CN(CC[C@H](CSC1=CC=CC=C1)NC2=C(C=C(C=C2)S(=O)(=O)NC(=O)C3=CC=C(C=C3)N4CCC(CC4)[C@H](C5=CC=CC=C5C6=CC=C(C=C6)Cl)O)S(=O)(=O)C(F)(F)F)CCO [AZD4320] (first compound max 1 µM, 7x7, partner max 1 µM)

# output
-0.0034
0.089
-0.006

The reported numbers originate from the supplement of paper PMC11061612.
